test system: SN12C renal; test: NCI tumour cell line growth inhibition, 48 h; in the data active = GI50 below about 0.43 µM; inactive = the rest
API: response.call in active, inactive

compound: COc1ccc2c(c1)[nH]c(=O)c1c3cccc(F)c3cn21
label value: active

Please indicate how the test categorized Cn1cc(-c2ccc3cc(-c4ccc(CC(=O)Nc5cc(C(C)(C)C)on5)cc4)cnc3c2)cn1 .
inactive

Please indicate how the test categorized COc1ccc(-c2nc(-c3ccc(C)cc3)cn3ccnc23)cc1 .
inactive

Please indicate how the test categorized CC1=C(SCCC(=O)OC(C[Se]C2=C(C)C(=O)c3ccccc3C2=O)C(=O)NCCCCCC(=O)OCc2ccccc2)C(=O)c2ccccc2C1=O (stereo not drawn) .
inactive

Please indicate how the test categorized CCN(Cc1ccccc1)C1CCN(Cc2cc(Br)ccc2O)CC1 .
inactive

Please indicate how the test categorized O=C(Nc1ccccc1)Nc1ccc2cc3ccc(NC(=O)Nc4ccccc4)cc3nc2c1 .
inactive

Please indicate how the test categorized COc1cc(OC)cc(-c2n/c(=C\c3c(O)[nH]c4ccc(OC)cc34)cc3c2=Nc2ccccc2-3)c1 .
inactive

Please indicate how the test categorized COC(=O)[C@H](Cc1cnc[nH]1)NC(=O)[C@@H](NC(=O)Nc1cc(C(F)(F)F)cc(C(F)(F)F)c1)C(C)C .
inactive

---

system: UACC-62 melanoma; experiment: NCI tumour cell line growth inhibition, 48 h
property label: TGI

compound: NC1=NS(=O)(=O)Nc2nc(-c3ccccc3)[nH]c21
tgt: UACC-62 melanoma
val: > 100 µM
--
compound: CC(=O)Nc1c(S(=O)(=O)c2ccccc2)c(C)c(C)n1Cc1ccccc1
tgt: UACC-62 melanoma
val: > 100 µM
--
compound: C=C(C)COC1CCCCO1 (stereo unspecified)
tgt: UACC-62 melanoma
val: > 100 µM

Sure, the documented TGI for O=C(c1ccc(Cl)cc1)N(C(=S)N1CCN(c2ccccn2)CC1)C1CCCCC1 is > 100 µM

---

Some compounds, each annotated with its measured TGI.
tested on: MOLT-4 leukemia; test: NCI tumour cell line growth inhibition, 48 h

# count of solved cases: 2
compound: Cc1cccc(C)c1NC(=O)C1=NC(=S)NC(c2ccccc2)C1c1nc2ccccc2s1 (centres undefined)
TGI: > 100 µM
--
compound: CC1CC/C(=C\c2ccc(F)cc2)C(=O)/C1=C/c1ccc(F)cc1 (centres undefined)
TGI: 8.81 µM

Sure, the documented TGI for Cc1csc2[n+]1-c1ccccc1N(C(=O)Nc1ccccc1)C(C)C2 (centres undefined) is > 100 µM

Sure, the documented TGI for O=C(NC(=O)c1cc(-c2ccccc2)n[nH]1)c1ccccc1 is > 100 µM

---

test system: SK-MEL-5 melanoma; experiment: NCI tumour cell line growth inhibition, 48 h; in the data active = GI50 below about 0.43 µM; inactive = the rest
API: response.call in 1.0 for active, 0.0 for inactive

Use the examples below as a reference point.
compound: CC(C)(C)c1ccc(Oc2ccc(N)cn2)cc1
label value: 0.0

compound: Cn1cc(-c2ccc3cc(-c4ccc(CC(=O)Nc5cc(C(C)(C)C)on5)cc4)cnc3c2)cn1
label value: 0.0

compound: COc1ccc2c(c1)[nH]c(=O)c1c3cccc(F)c3cn21
label value: 1.0

compound: CCN(Cc1ccccc1)C1CCN(Cc2cc(Br)ccc2O)CC1
label value: 0.0

compound: Cc1cc2c(cc1Cl)S/C(=C/C(=O)O)C(Nc1ccc3ncsc3c1)=NS2(=O)=O
label value: 0.0

Please indicate how the test categorized COc1ccc(CN2c3ccccc3Sc3ccccc32)c(C(F)(F)F)c1 .
0.0

Please indicate how the test categorized COc1ncc(Nc2ncc([C@@H](C)N3CCN(S(C)(=O)=O)CC3)cc2-c2nc(C)nc(N)n2)cc1F .
0.0

Please indicate how the test categorized O=C([CH-]C(=O)c1ccccc1)c1ccccc1.[CH-]1CCCCC1.[CH-]1CCCCC1.[CH-]1CCCCC1.[Sn+4] .
0.0

Please indicate how the test categorized CCc1ccc(CCC(=O)Nc2ncc(Cc3ccc(Cl)cc3)s2)o1 .
1.0
